Target: human Oxytocin Receptor (hOTR) (Homo sapiens (Human), UniProt P30559)
Sequence (P30559 whole entry): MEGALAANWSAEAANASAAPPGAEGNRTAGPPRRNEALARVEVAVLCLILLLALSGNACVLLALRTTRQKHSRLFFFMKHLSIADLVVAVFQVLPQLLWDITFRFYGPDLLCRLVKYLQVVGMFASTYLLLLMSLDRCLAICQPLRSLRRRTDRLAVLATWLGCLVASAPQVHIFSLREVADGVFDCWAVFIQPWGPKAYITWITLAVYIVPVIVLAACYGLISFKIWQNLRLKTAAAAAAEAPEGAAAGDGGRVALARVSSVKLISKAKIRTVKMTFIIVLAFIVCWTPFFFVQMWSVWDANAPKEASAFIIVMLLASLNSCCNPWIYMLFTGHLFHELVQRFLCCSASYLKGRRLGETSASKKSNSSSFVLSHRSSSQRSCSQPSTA
Test: Oxytocin receptor antagonist assay (oxytocin-evoked calcium, FLIPR, CHEM-1-hOTR cells)
Format: cell-based
Conditions: read-out: OT IC50
pIC50: −log10 of the molar value.
EXPERIMENTAL_ENDPOINT: pIC50

>>> result("CC1c2nnc(C3CC4(C3)CN(c3ncccn3)C4)n2-c2ccc(Cl)cc2CN1C(=O)OC(C)(C)CF (stereo not shown)")
"< 6.00"
>>> result("CCOC(=O)N1Cc2cc(Cl)ccc2-n2c(C3CC4(C3)CN(c3ncc(F)cn3)C4)nnc2C1C (stereo not shown)")
"< 6.00"
>>> result("CC(C)OC(=O)N1Cc2cc(Cl)ccc2-n2c(nnc2C2CC3(C2)CN(c2ccc(F)cn2)C3)C1")
"6.30 to 7.00"
>>> result("COC(=O)N1Cc2cc(Cl)ccc2-n2c(nnc2C2CC3(C2)CN(c2ncccn2)C3)C1")
"6.00 to 6.30"
>>> result("CN1Cc2cc(Cl)ccc2-n2c(nnc2C2CC3(C2)CN(c2ccc(F)cn2)C3)C1")
"< 6.00"
>>> result("Cc1cccc(N2CC3(CC(c4nnc5n4-c4ccc(Cl)cc4CN(C)C5)C3)C2)n1")
"< 6.00"
>>> result("O=C(C1CC1)N1Cc2cc(Cl)ccc2-n2c(nnc2C2CC3(C2)CN(c2ccccn2)C3)C1")
"< 6.00"
>>> result("COC(=O)N1Cc2cc(Cl)ccc2-n2c(C3CC4(C3)CN(c3ncncc3F)C4)nnc2C1C (stereo not shown) [compound 183]")
"6.30 to 7.00"
>>> result("CN1Cc2cc(Cl)ccc2-n2c(nnc2C2CC3(C2)CN(C(=O)C2COC2)C3)C1")
"< 6.00"
>>> result("CCOC(=O)N1Cc2cc(Cl)ccc2-n2c(nnc2C2CC3(C2)CN(c2ccc(F)cn2)C3)C1")
"6.30 to 7.00"
>>> result("CC(C)C(=O)N1Cc2cc(Cl)ccc2-n2c(nnc2C2CC3(C2)CN(c2ccccn2)C3)C1")
"< 6.00"
>>> result("CC1c2nnc(C3CC4(C3)CN(c3ccc(F)cn3)C4)n2-c2ccc(Cl)cc2CN1C(=O)OC(C)(C)CF (single isomer, unassigned) [Cpd 206A]")
"6.30 to 7.00"
>>> result("CC(C)OC(=O)N1Cc2cc(Cl)ccc2-n2c(nnc2C2CC3(C2)CN(c2ncncc2F)C3)C1")
"6.00 to 6.30"
>>> result("CN1Cc2cc(Cl)ccc2-n2c(nnc2C2CC3(C2)CN(c2cccnn2)C3)C1")
"< 6.00"
>>> result("COC(=O)N1Cc2cc(Cl)ccc2-n2c(C3CC4(C3)CN(c3ncccn3)C4)nnc2C1C (single isomer, unassigned) [Cpd 166A]")
"< 6.00"
>>> result("COC(=O)N1Cc2cc(Cl)ccc2-n2c(C3CC4(C3)CN(c3cnccn3)C4)nnc2C1C (single isomer, unassigned) [Cpd 165A]")
"6.00 to 6.30"
>>> result("CCOC(=O)N1Cc2cc(Cl)ccc2-n2c(nnc2C2CC3(C2)CN(c2ccccn2)C3)C1")
"< 6.00"
>>> result("O=C(C1CC1)N1Cc2cc(Cl)ccc2-n2c(nnc2C2CC3(C2)CN(c2ccc(F)cn2)C3)C1")
"< 6.00"
>>> result("COC(=O)N1Cc2cc(Cl)ccc2-n2c(C3CC4(C3)CN(c3cnccn3)C4)nnc2C1C (stereo not shown) [compound 165]")
"6.00 to 6.30"
>>> result("Clc1ccc2c(c1)CN(C1CCC1)Cc1nnc(C3CC4(C3)CN(c3ccccn3)C4)n1-2")
"6.00 to 6.30"
>>> result("CCC(=O)N1Cc2cc(Cl)ccc2-n2c(nnc2C2CC3(C2)CN(c2cccc(C)n2)C3)C1")
"< 6.00"
>>> result("CN1Cc2cc(Cl)ccc2-n2c(nnc2C2CC3(C2)CN(c2cnccn2)C3)C1")
"< 6.00"
